Data provenance: patent US20240327534A1

tested target: T1, human BCMA on BCMA expressing cell lines (human, UniProt Q02223 1-184)
T1 sequence: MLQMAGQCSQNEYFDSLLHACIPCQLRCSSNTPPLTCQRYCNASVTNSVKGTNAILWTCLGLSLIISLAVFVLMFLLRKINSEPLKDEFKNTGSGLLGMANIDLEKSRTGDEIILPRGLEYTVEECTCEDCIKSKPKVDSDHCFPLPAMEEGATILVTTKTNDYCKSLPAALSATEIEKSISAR
protocol description: cell-based or functional assay
observable: TDCC EC50 (EJM cells)

binder	observable	result
BCMA targeting trispecific protein 02G11 (other, not shown: large carriers; small tags and cut ends, trispecific) VHH: EVQLVESGGGLVQPGRSLTLSCAASTNIDSISPMGWYRQAPGKQRELVAAIHGSSTLYADSVKGRFTISRDNAKNSIYLQMNSLRPEDTALYYCNKVPWGDYHPRNVTWGQGTQVTVSS	TDCC EC50 (EJM cells)	0.0238 nM
BCMA targeting trispecific protein 01E10 (other, trispecific; not shown: the C-terminal 6xHis tag follows those domains and is left out) VHH: EVQLVESGGGLVQPGRSLTLSCAASTNIESISPMGWYRQAPGKQRELVAAIHGKSTLYADSVKGRFTISRDNAKNSIYLQMNSLRPEDTALYYCNKVPWGDYHPRRVYWGQGTQVTVSS	TDCC EC50 (EJM cells)	0.0623 nM
BCMA targeting trispecific protein 01E05 (other, trispecific; not shown: the C-terminal 6xHis tag follows those missing domains and is left out) VHH: EVQLVESGGGLVQPGRSLTLSCAASTNIFSRSPMGWYRQAPGKQRELVAAIHGTSTLYADSVKGRFTISRDNAKNSIYLQMNSLRPEDTALYYCNKVPWGKYHPRNVYWGQGTQVTVSS	TDCC EC50 (EJM cells)	0.0108 nM
BCMA targeting trispecific protein 01H05 (other, not shown: large carriers; small tags and cut ends, trispecific) VHH: EVQLVESGGGLVQPGRSLTLSCAASTNIFSITPMGWYRQAPGKQRELVAAIHGTSTLYADSVKGRFTISRDNAKNSIYLQMNSLRPEDTALYYCNKVPWGRYHPRNVYWGQGTQVTVSS	TDCC EC50 (EJM cells)	0.0454 nM
